Every entry's value here was drawn from PubChem BioAssay.

The following compounds are shown together with reported z-score values.
# Procedure Summary: S. cerevisiae growth modulation with rapamycin, primary screen, strain BY4716, OD600, 96 h (AID 1091); note: test concentration not given here
# Test Context: higher = more signal, called active from +8 up or from −8 down
The answer should be written as a number, with no unit following it.

Reference set, count: 3
Compound	z-score
CCCNC(=O)OC[C@H]1O[C@H](CCON=C(C)CCN2CCc3nc(-c4ccccc4)c(-c4ccccc4)cc3C2)C=C[C@@H]1Oc1ccc(OC)cc1	-3.57
CO[C@H]1COC(=O)CC=C[C@@H](C)COC(=O)[C@@H](OCc2ccccc2)C=C[C@@H]1C	-0.855
Cc1cc2c(nc1C)CCCN2CC(C)ON=C[C@@H](C)[C@H](OCc1ccccc1)C(C)C (some centres undefined)	1.24

API: the following record is the query input.
Requested field: z-score. Item: CC(C)=NO[C@@H](C)c1cc(-c2c(C)cc(C)cc2C)no1 -0.0423

###

# Procedure Summary: E. coli growth modulation, two-sided OD650, primary screen, E. coli filamentation project, strain DRC41, 24 h (AID 1093);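 note: MC1000 strain lacking acrAB efflux and sulA so SOS filamentation is blocked; test concentration not given here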
# Test Context: OD650, 24 h, higher = more signal, called active from +8 up or from −8 down
Measured Quantity: z-score
The answer should be written as a number, with no unit following it.

Reference set, count: 3
Compound	z-score
COC(=O)[C@H](C)NC(=O)CCC1CC(OC(=O)NCCc2ccc(F)cc2)CC2(CCCC(COC(=O)NCCCN3CCCC3=O)O2)O1 (some centres undefined)	-0.681
CO[C@H]1COC(=O)CC=C[C@@H](C)COC(=O)[C@@H](OCc2ccccc2)C=C[C@@H]1C	0.973
CCOC(=O)[C@H](CC(C)C)NC(=O)CCC1CC(OC(=O)NCc2cccc3ccccc23)CC2(CCCC(COC(=O)NCc3ccccc3)O2)O1 (some centres undefined)	-0.548

API: the following record is the query input.
Requested field: z-score. Item: CC(C)=NO[C@@H](C)c1cc(-c2c(C)cc(C)cc2C)no1 -0.272

###

The following compounds are shown together with reported composite z-score values.
# System Name: Alpha-bungarotoxin (Bungarus multicinctus) (UniProt P60615)
# Sequence (P60615 whole entry, looked up): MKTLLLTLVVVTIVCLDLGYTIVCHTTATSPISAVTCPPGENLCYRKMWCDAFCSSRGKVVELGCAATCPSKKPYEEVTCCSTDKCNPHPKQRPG
# Procedure Summary: alpha-bungarotoxin binders on microarray, profiling panel, artefact control for SMM control protein annotation, biochemical, small-molecule microarray, Alexa647 label, 635/667 nm fluorescence (AID 1117)
# Test Context: alpha-BTX-A647 binding fluorescence, higher = more signal
The answer should be written as a number, with no unit following it.

Reference set, count: 3
Compound	Measured Quantity	Obs Value
C=C(C)C(=O)OC[C@@H]1CN2[C@@H](CC[C@@H](C)[C@@H]2c2ccc(Br)cc2)C(=O)O1	composite z-score	0.548
COC(=O)[C@H](C)NC(=O)CCC1CC(OC(=O)NCCc2ccc(F)cc2)CC2(CCCC(COC(=O)NCCCN3CCCC3=O)O2)O1 (some centres undefined)	composite z-score	1.14
CC(C)CCN1CCc2nc(-c3ccccc3)c3c(c2C1)CO[C@@H](C)C3	composite z-score	0.416

API: the following record is the query input.
Requested field: composite z-score. Item: O=C1[C@H]2[C@H]3[C@H](O)[C@H](O)CC(=NOCc4ccccc4)[C@H]3CC[C@H]2C(=O)N1Cc1ccccc1 -0.0806
